Target: T1, GST-DLG5 (p-dlg) PDZ domain fusion protein (Human, UniProt Q8TDM6 1343-1583)
T1 construct: also called Human discs large protein p-dlg; not shown: glutathione S-transferase encoded by vector pGEX-3X (Pharmacia)
T1 sequence: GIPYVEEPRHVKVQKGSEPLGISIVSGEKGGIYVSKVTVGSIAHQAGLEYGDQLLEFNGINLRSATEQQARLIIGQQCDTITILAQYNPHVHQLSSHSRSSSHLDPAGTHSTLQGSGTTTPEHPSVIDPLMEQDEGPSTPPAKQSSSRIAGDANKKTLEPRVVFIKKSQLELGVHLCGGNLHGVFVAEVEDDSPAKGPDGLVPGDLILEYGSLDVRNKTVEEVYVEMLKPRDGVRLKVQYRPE
Assay: A/G assays
Ends that are not written are not given here. * marks the point of attachment. Biotin = O=C1N[C@H]2[C@H](CS[C@H]2CCCCC(=O)*)N1
OUTCOME_MEASURE: binding result

>>> reported("Biotin-LERTSSVSPSTAEPELSIVF (Only the last four residues are seen in the excerpts) [CC CKR-3 C-terminal peptide AA43L]")
"no binding"
>>> reported("Biotin-LERVSSTSPSTGEHELSAGF (Only the last four residues are seen in the excerpts) [CC CKR-1R C-terminal peptide AA41L]")
"no binding"
>>> reported("Biotin-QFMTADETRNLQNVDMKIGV (also called CD44 (long form)) [CD44 C-terminal peptide AA9L, biotinylated]")
"no binding"
>>> reported("Biotin-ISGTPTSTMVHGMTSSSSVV [Clasp-2 C-terminal peptide AA2L, biotinylated]")
"no binding"
>>> reported("Biotin-KKGTYLTDETHREVKFTSL [CD46 (Form 1) C-terminal peptide AA10L, biotinylated]")
"no binding"

Recorded binding result for Biotin-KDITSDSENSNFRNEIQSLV (also called CD95 (Apo-1/Fas); AAI3L) [CD95 (Fas) C-terminal peptide AA13L, biotinylated] , please? no binding

Biotin-SPQPDSTDNDDYDDISAA [CD6 C-terminal peptide AA6L, biotinylated] ? no binding

Biotin-DTPSSSYTQSTMDHDLHDAL (Only the last four residues are seen in the excerpts) [CC CKR-4 C-terminal peptide AA44L] ? no binding

Biotin-SSSQSLESDGSYQKPSYIL (Only the last four residues are seen in the excerpts) [CD62E C-terminal peptide AA48L] ? no binding

Biotin-EVICYIEKPGVETLEDSVF [CDW125 (IL5R) C-terminal peptide AA28L, biotinylated] ? no binding
